# test.system: PPARγ (Homo sapiens, UniProt P37231)
# Sequence (P37231 222-505): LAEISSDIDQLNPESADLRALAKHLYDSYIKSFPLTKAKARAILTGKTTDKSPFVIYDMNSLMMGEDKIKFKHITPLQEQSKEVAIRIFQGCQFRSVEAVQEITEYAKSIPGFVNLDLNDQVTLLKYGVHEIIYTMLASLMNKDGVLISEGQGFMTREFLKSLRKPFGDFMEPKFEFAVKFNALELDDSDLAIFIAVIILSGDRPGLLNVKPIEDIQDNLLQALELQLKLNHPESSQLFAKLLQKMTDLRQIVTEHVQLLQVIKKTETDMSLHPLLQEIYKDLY
measurement.name: Kd (µM)
Numeric only. Scale: µM

Give Kd; test system PPARγ (Homo sapiens, UniProt P37231); compound C=C(C)[C@@H]1CC[C@]2(C(=O)O)CC[C@]3(C)[C@H](CC[C@@H]4[C@@]5(C)CC[C@H](O)C(C)(C)[C@@H]5CC[C@]43C)[C@@H]12 [BA, betulinic acid]
4
